All values here come from patent US20100172907A1.

target: T1, BSA-conjugated Aβ heptapeptide LVFFAEC (reading uncertain; also: BSA conjugate); assay: ELISA;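 further: ELISA of antibody at 10 or 2 µg/ml binding plate-coated BSA–peptide conjugates, detected with HRP anti-human Ig and TMB colour, mock-treated BSA without peptide as negative control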
T1 construct: also called Peptide 17-22
T1 peptide: LVFFAEC([NSMP-BSA])
Groups on a side chain read outwards from the residue. No end group written: not given here. NSMP = not defined here
Measured Peptide-ratio 17-22/2-7, listed per entry for reference.
Quick one: just the number, no unit, thanks!

MS-Roche #7.11.H2 Fab (Fab, V domains shown) VH: QVQLVESGGGLVQPGGSLRLSCAASGFTFSSYAMSWVRQAPGKGLEWVSAINANGYKKYYADSVKGRFTISRDNSKNTLYLQMNSLRAEDTAVYYCARGKGNTHKPYGYVRYFDVWGQGTLVTVSS VL: DIVLTQSPATLSLSPGERATLSCRASQSVSSSYLAWYQQKPGQAPRLLIYGASSRATGVPARFSGSGSGTDFTLTISSLEPEDFATYYCQQVYSPPHTFGQGTKVEIKR :: 0.29

# Peptide-ratio 17-22/2-7 of MS-Roche #7.9.H2 Fab (Fab, V domains shown, assembled) VH: QVQLVESGGGLVQPGGSLRLSCAASGFTFSSYAMSWVRQAPGKGLEWVSAINADGNRKYYADSVKGRFTISRDNSKNTLYLQMNSLRAEDTAVYYCARGKGNTHKPYGYVRYFDVWGQGTLVTVSS VL: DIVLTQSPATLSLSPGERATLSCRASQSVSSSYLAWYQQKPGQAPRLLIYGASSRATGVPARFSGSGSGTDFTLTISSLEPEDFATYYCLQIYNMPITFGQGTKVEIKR = 0.08
